MEASUREMENT NOTES: Pharmacokinetics after single topical ocular dose 10 μg/eye (BL06029)
Type: in vivo, rabbit
COND: rabbit, topical or ocular, 10 ug; Conjunctiva; single dose 10 μg/eye (BL06029)
QUANTITY NAME: Tmax (h)
Write down the numeric answer in h and omit the unit.

(Q) Suppose we examine the molecule CCCCC(CC)CNC(=N)NC(=N)NCCCCCCNC(=N)NC(=N)NCC(CC)CCCC (stereo not shown) [Alexidine] ; what Tmax value has been reported?
(A) 8

---

MEASUREMENT NOTES: Anterior ocular and systemic pharmacokinetics after repeated topical ocular administration (TID, 10 doses)
Type: in vivo, male New Zealand Composite rabbits
COND: male, New Zealand Composite, rabbit, topical or ocular, 10 ug; Conjunctiva; TID dosing (dose 10), 10 μg/eye
QUANTITY NAME: Cmax (ng/g)
Write down the numeric answer in ng/g and omit the unit.

(Q) Suppose we examine the compound CCCCC(CC)CNC(=N)NC(=N)NCCCCCCNC(=N)NC(=N)NCC(CC)CCCC (stereo not shown) ; what Cmax value has been reported?
(A) 15100
